All figures here come from patent US7781421B2.

molecular target: rat α1β2γ2 GABAA Receptor (Rattus norvegicus, UniProt P18508+P62813+P63138, INS375LLRMFSFK); construct: from linearized pBluescript vectors containing receptor coding regions; expressed in transfected cells; host or cells: Xenopus laevis oocytes injected with in vitro transcribed capped mRNA; experiment: Xenopus oocyte two-electrode voltage-clamp electrophysiology; format: cell-based; conditions: direct current gated by 10 μM compound in the absence of GABA
Sequence (P62813 28-455, stated change not applied): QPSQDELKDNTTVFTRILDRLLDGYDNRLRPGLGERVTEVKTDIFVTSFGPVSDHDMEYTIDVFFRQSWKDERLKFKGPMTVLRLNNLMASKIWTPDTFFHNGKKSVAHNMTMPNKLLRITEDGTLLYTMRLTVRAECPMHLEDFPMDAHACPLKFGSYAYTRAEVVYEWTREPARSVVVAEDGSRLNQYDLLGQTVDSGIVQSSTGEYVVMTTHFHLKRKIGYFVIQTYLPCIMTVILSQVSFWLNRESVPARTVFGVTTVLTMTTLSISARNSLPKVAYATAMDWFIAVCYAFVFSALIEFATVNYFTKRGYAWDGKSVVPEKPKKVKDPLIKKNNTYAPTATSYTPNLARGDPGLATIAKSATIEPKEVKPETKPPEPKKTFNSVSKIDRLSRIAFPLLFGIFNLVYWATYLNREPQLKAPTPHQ
Sequence (P63138 26-474, stated change not applied): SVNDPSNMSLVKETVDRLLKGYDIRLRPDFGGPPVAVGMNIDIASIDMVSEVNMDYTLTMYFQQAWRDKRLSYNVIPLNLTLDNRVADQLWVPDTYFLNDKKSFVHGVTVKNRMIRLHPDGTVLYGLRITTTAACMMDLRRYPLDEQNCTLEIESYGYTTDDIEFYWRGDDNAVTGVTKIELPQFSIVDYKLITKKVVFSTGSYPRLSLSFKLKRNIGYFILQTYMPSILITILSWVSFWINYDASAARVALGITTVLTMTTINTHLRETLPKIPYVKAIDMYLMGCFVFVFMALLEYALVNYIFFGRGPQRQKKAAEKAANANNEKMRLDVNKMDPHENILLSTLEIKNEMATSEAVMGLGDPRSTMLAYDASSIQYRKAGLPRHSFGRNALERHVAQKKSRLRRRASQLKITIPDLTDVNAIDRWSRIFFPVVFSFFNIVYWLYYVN
Sequence (P18508 with tags, fused parts or gaps INS375LLRMFSFK): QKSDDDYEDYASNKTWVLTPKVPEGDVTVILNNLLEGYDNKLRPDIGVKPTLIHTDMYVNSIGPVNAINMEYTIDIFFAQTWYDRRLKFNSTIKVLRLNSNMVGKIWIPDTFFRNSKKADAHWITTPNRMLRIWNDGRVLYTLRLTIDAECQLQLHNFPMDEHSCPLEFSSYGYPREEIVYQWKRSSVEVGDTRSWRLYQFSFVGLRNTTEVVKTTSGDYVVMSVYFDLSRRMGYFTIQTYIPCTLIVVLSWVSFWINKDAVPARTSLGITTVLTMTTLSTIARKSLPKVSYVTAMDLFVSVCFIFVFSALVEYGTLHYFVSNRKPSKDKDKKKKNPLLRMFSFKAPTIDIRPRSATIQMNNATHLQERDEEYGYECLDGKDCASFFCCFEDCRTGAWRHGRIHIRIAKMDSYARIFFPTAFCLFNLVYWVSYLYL
Lab note: class by Gating (10 μM), ratio of compound only current/2 μM GABA current, see interval 1 (below -0.01), interval 2 (-0.01 to below 0.02), interval 3 (0.02 or more)

compound="C=C1CCC[C@]23CCC4C(CC[C@@H]5C[C@H](O)CC[C@]45C)C2CC[C@H]13 (some centres unmarked) [Compound 52]" assigned_class="interval 1"
compound="COC1CCCC23CCC4C(CCC5CC(O)CCC54C)C2CCC13 (centres unmarked) [Compound 70]" assigned_class="interval 2"
compound="CC12CCC(O)CC1CCC1C2CCC23CC4OC4C(=O)C2CCC13 (centres unmarked) [Compound 19b]" assigned_class="interval 3"
compound="CC12CCC(O)CC1CCC1C2CCC23CC=CC(=O)C2CCC13 (centres unmarked) [Compound 11b]" assigned_class="interval 3"
compound="C[C@]12CC[C@@H](O)C[C@@H]1CCC1C3CCC4CCC(=O)C[C@@]43CCC12 (some centres unmarked) [Compound 4a]" assigned_class="interval 3"
compound="CC(=O)C1CCCC23CCC4C(CCC5CC(O)CCC54C)C2CCC13 (centres unmarked) [Compound 79]" assigned_class="interval 1"
compound="CC12CCC(O)CC1CCC1C2CCC23CCC(=O)C2CCC13 (centres unmarked) [Compound 89]" assigned_class="interval 2"
compound="CC12CCC(O)CC1CCC1C2CCC23CC4OC4C(=O)C2CCC13 (centres unmarked) [Compound 19a]" assigned_class="interval 3"
compound="C[C@]12CC[C@@H](O)C[C@@H]1CCC1C3CC[C@@H]4/C(=C/C#N)CCC[C@]34CCC12 (some centres unmarked) [Compound 63]" assigned_class="interval 2"
compound="CC12CCC(O)CC1CCC1C2CCC23CCC=CC2CCC13 (centres unmarked) [Compound 13b]" assigned_class="interval 1"
compound="CC12CCC(O)CC1CCC1C2CCC23C=CC(=O)CC2CCC13 (centres unmarked) [Compound 30a]" assigned_class="interval 1"
compound="CC12CCC(O)CC1CCC1C2CCC23C(=O)CCCC2CCC13 (centres unmarked) [Compound 5a]" assigned_class="interval 3"
compound="C[C@]12CC[C@@H](O)C[C@@H]1CCC1C3CC[C@@H]4[C@H]5O[C@H]5CC[C@]34CCC12 (some centres unmarked) [Compound 71]" assigned_class="interval 2"
compound="C[C@]12CC[C@@H](O)C[C@@H]1CCC1C3CC[C@@H]4[C@@]5(CCC[C@]34CCC12)CO5 (some centres unmarked) [Compound 73]" assigned_class="interval 1"
compound="CC12CCC(O)CC1CCC1C2CCC23CCC=CC2CCC13 (centres unmarked) [Compound 13a]" assigned_class="interval 1"
compound="CC12CCC(O)CC1CCC1C2CCC23CCC(=CC#N)C2CCC13 (centres unmarked) [Compound 97]" assigned_class="interval 1"
compound="C[C@]12CC[C@@H](O)C[C@@H]1CCC1C3CC[C@@H]4C(=O)CCC[C@]34CCC12 (some centres unmarked) [Compound 2a]" assigned_class="interval 2"
compound="C[C@]12CC[C@@H](O)C[C@@H]1CCC1C3CC[C@@H]4[C@H](C#N)CCC[C@]34CCC12 (some centres unmarked) [Compound 39]" assigned_class="interval 3"
compound="CC12CCC(O)CC1CCC1C2CCC23CC(=O)C=CC2CCC13 (centres unmarked) [Compound 21c]" assigned_class="interval 3"
